The origin of these recorded values is patent US20240294541A1.

- System: MIA PaCa-2 (human pancreatic cancer)
- protocol: cells
- Type: cell-based
- conditionContext: Table 4; selectivity coefficient vs normal BALB/3T3 fibroblasts
quantityMeasured: SI MIA PaCa-2
// print number alone

compound="CC[C@@H](C(=O)[C@@H](C)[C@@H](O)[C@H](C)[C@@H]1O[C@@H]([C@@H](CC)C(=O)O)CC[C@@H]1C)[C@H]1O[C@]2(C=C[C@@H](NC(=O)OCCOC)[C@]3(CC[C@@](C)([C@H]4CC[C@](O)(CC)[C@H](C)O4)O3)O2)[C@H](C)C[C@@H]1C [FLC-00459-1•Na]" quantitymeasured="SI MIA PaCa-2" recordednumber=13.6

SI MIA PaCa-2 value, target or system MIA PaCa-2 (human pancreatic cancer), for CC[C@@H](C(=O)[C@@H](C)[C@@H](O)[C@H](C)[C@@H]1O[C@@H]([C@@H](CC)C(=O)O)CC[C@@H]1C)[C@H]1O[C@]2(C=C[C@@H](NC(=O)OCCOCc3ccccc3)[C@]3(CC[C@@](C)([C@H]4CC[C@](O)(CC)[C@H](C)O4)O3)O2)[C@H](C)C[C@@H]1C [FLC-00451-1•Na] : 13.9

###

Attribute: SI A2780Cis
- Test system: A2780Cis (cisplatin-resistant human ovarian cancer)
- protocol: In vitro cytotoxicity, SRB assay, A2780Cis
- Format: cell-based
Answer with the value's number alone.

compound="CC[C@@H](C(=O)[C@@H](C)[C@@H](O)[C@H](C)[C@@H]1O[C@@H]([C@@H](CC)C(=O)O)CC[C@@H]1C)[C@H]1O[C@]2(C=C[C@@H](NC(=O)OCCOCc3ccccc3)[C@]3(CC[C@@](C)([C@H]4CC[C@](O)(CC)[C@H](C)O4)O3)O2)[C@H](C)C[C@@H]1C [FLC-00451-1•Na]" measuredon="A2780Cis (cisplatin-resistant human ovarian cancer)" recordednumber=96.0
compound="CC[C@@H](C(=O)[C@@H](C)[C@@H](O)[C@H](C)[C@@H]1O[C@@H]([C@@H](CC)C(=O)O)CC[C@@H]1C)[C@H]1O[C@]2(C=C[C@@H](NC(=O)C(=O)NCc3cccnc3)[C@]3(CC[C@@](C)([C@H]4CC[C@](O)(CC)[C@H](C)O4)O3)O2)[C@H](C)C[C@@H]1C [FLC-00479-1•Na]" measuredon="A2780Cis (cisplatin-resistant human ovarian cancer)" recordednumber=15.8

Reported A2780Cis (cisplatin-resistant human ovarian cancer) SI A2780Cis for item CC[C@@H](C(=O)[C@@H](C)[C@@H](O)[C@H](C)[C@@H]1O[C@@H]([C@@H](CC)C(=O)O)CC[C@@H]1C)[C@H]1O[C@]2(C=C[C@@H](NC(=O)NCC3CCC(F)(F)CC3)[C@]3(CC[C@@](C)([C@H]4CC[C@](O)(CC)[C@H](C)O4)O3)O2)[C@H](C)C[C@@H]1C [FLC-00545-1•Na] was 186.6

###

Listed below: SI MIA PaCa-2 values for each entry.
- System: MIA PaCa-2 (human pancreatic cancer)
- protocol: cells
- Format: cell-based
- conditionContext: Table 4; selectivity coefficient vs normal BALB/3T3 fibroblasts
# print the numeric value only

Field: example entries. Status: answers known.
testsmiles=CC[C@@H](C(=O)[C@@H](C)[C@@H](O)[C@H](C)[C@@H]1O[C@@H]([C@@H](CC)C(=O)O)CC[C@@H]1C)[C@H]1O[C@]2(C=C[C@@H](NC(=O)Nc3ccc(Cl)c(Cl)c3)[C@]3(CC[C@@](C)([C@H]4CC[C@](O)(CC)[C@H](C)O4)O3)O2)[C@H](C)C[C@@H]1C recordednumber=9.0
testsmiles=CC[C@@H](C(=O)[C@@H](C)[C@@H](O)[C@H](C)[C@@H]1O[C@@H]([C@@H](CC)C(=O)O)CC[C@@H]1C)[C@H]1O[C@]2(C=C[C@@H](NC(=O)OCC(F)F)[C@]3(CC[C@@](C)([C@H]4CC[C@](O)(CC)[C@H](C)O4)O3)O2)[C@H](C)C[C@@H]1C recordednumber=7.8

Lab note: measured SI MIA PaCa-2 of CC[C@@H](C(=O)[C@@H](C)[C@@H](O)[C@H](C)[C@@H]1O[C@@H]([C@@H](CC)C(=O)O)CC[C@@H]1C)[C@H]1O[C@]2(C=C[C@@H](NC(=O)C(N)=O)[C@]3(CC[C@@](C)([C@H]4CC[C@](O)(CC)[C@H](C)O4)O3)O2)[C@H](C)C[C@@H]1C was 2.5
